tested on: SK-ES-1; assay: relative viability vs DMSO control (72 h) (fraction); higher = more viable cells; settings: 0.00152 µM
ATTRIBUTE MEASURED: relative viability

The examples below pair each entry with its known result.
COMPOUND STRING	relative viability
CC[C@@H]1C(=O)N(C)c2cnc(Nc3ccc(C(=O)N[C@H]4CC[C@H](N5CCN(CC6CC6)CC5)CC4)cc3OC)nc2N1C(C)C	1.08
NC(=O)c1cnc2[nH]ccc2c1N[C@@H]1[C@@H]2CC3C[C@H]1C[C@@](O)(C3)C2	1.02

Batch request: relative viability for each of the following molecules.
1. Cc1ccc(C(=O)OCc2ccc([C@@H](CN)C(=O)Nc3ccc4cnccc4c3)cc2)c(C)c1
2. CNC(=O)c1cc(Oc2ccc(NC(=O)Nc3ccc(Cl)c(C(F)(F)F)c3)cc2)ccn1
3. C=CC(=O)Nc1cc(Nc2nccc(-c3cn(C)c4ccccc34)n2)c(OC)cc1N(C)CCN(C)C
4. Cc1cn(-c2cc(NC(=O)c3ccc(C)c(Nc4nccc(-c5cccnc5)n4)c3)cc(C(F)(F)F)c2)cn1
5. Cc1cccc(-c2[nH]c(CNc3ccccc3F)nc2-c2ccc3ncnn3c2)n1
6. CN1CCN(CCOc2cc(OC3CCOCC3)c3c(Nc4c(Cl)ccc5c4OCO5)ncnc3c2)CC1
7. C[C@@H]1COC(Nc2ccc3ncnc(Nc4ccc(OCc5nccs5)c(Cl)c4)c3c2)=N1

1. 1.04
2. 1.04
3. 1.07
4. 0.951
5. 0.98
6. 1.04
7. 0.976

Recorded values, source the supplement of paper PMC10883282.
